target: SDS-activated 20S proteasome from rabbit muscle (Oryctolagus cuniculus, UniProt G1SU71+G1T4Q9)
protocol.summary: Kinetic assay: inhibition of the 20S proteasome
Format: biochemical
assay.context: Table V
Reported pKi is given for each of the following compounds.
# pKi: negative log10 of molar concentration; output just the value

Answered cases to consult:
[[record]]
smiles_structure = "CC(C)C[C@H](NC(=O)[C@H](Cc1cccc2ccccc12)NS(=O)(=O)c1cccc2cccnc12)B(O)O"
reported = 8.77

[[record]]
smiles_structure = "CC(C)C[C@H](NC(=O)[C@H](CC(C)C)NC(=O)[C@H](CC(C)C)NC(=O)OCc1ccccc1)B(O)O"
reported = 10.52

[[record]]
smiles_structure = "CC(C)C[C@H](NC(=O)[C@H](Cc1cccc2ccccc12)NC(=O)OCc1ccccc1)B1O[C@@H]2C[C@@H]3C[C@@H](C3(C)C)[C@]2(C)O1"
reported = 10.00


Now consider a different compound.
Recorded result, `CC(C)C[C@H](NC(=O)[C@H](Cc1ccccc1)NC(=O)N1CCOCC1)B(O)O` , pKi: 9.09
